Reference source for all entries: ChEMBL document CHEMBL1142933

A set of compounds tested on P-selectin (Homo sapiens, UniProt P16109), with measured log10(IC50):
Base-10 log of IC50, unit µM.

Reference set, count: 5
Structure Notation	log10(IC50)
O=C(O)Cc1cccc(-c2ccccc2NC(=O)CCc2cc(O)c(O)c(O)c2)c1	1.64
O=C(CCc1cc(O)c(O)c(O)c1)Nc1cccc(C(=O)O)c1	1.29
O=C(Nc1ccccc1-c1ccc(C(=O)O)s1)c1cccc(-c2ccc(O)c(O)c2O)c1	0.08
O=C(O)Cc1cccc(-c2ccccc2NC(=O)CCCNC(=O)c2cc(O)c(O)c(O)c2)c1	1.76
O=C(O)c1cc(O)c(O)c(O)c1	1.28

Now take the following compound into account.
*Q* Record "O=C(O)Cc1ccc(-c2ccccc2NC(=O)Cc2cc(O)c(O)c(O)c2)s1" : what is its log10(IC50) with P-selectin (Homo sapiens, UniProt P16109)?
*A* 0.38

###

Tested Target: P-selectin (Homo sapiens)
Sequence (whole entry): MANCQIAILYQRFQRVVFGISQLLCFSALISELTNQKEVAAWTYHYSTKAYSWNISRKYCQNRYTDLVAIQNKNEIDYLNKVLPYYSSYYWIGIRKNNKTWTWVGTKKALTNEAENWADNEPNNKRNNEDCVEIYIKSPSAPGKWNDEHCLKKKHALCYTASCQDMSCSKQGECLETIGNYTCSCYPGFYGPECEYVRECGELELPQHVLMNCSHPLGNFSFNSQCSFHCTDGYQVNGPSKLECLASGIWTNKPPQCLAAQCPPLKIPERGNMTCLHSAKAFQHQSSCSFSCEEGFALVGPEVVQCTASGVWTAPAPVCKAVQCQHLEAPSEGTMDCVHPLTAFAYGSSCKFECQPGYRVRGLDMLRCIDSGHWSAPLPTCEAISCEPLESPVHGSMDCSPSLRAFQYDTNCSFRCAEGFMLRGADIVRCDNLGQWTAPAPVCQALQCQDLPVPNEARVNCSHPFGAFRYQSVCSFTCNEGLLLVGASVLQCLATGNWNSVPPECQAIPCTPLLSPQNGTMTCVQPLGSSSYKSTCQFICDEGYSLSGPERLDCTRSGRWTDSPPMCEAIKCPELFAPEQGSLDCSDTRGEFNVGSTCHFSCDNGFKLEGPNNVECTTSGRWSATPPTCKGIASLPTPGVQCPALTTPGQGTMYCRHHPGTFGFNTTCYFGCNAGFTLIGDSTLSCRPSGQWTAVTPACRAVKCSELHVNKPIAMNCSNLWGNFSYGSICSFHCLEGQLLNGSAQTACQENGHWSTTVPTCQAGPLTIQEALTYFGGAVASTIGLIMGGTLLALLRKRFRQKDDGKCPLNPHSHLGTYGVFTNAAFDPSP
Protocol: Inhibition of human P-selectin after 2 hrs at 100 uM
Each item that follows carries a reported inhibition.
Report the figure in % without appending any unit label.

Reference set, count: 5
Structure Notation	Tested Target	Readout Number
Oc1cccc(O)c1O	P-selectin (Homo sapiens)	1.7
O=c1c(O)cccc2cc(O)c(O)c(O)c12	P-selectin (Homo sapiens)	77
O=c1cc(-c2ccccc2)oc2cc(O)cc(O)c12	P-selectin (Homo sapiens)	-5.3
O=C(O)c1cccc(O)c1O	P-selectin (Homo sapiens)	-3
O=c1cc(-c2ccccc2)oc2cc(O)c(O)c(O)c12	P-selectin (Homo sapiens)	52

*Q* What measured inhibition goes with "O=C(O)C1=C[C@@H](O)[C@@H](O)[C@H](O)C1" ?
*A* -1

###

inhibition values by entry
Tested Target: L-selectin (Homo sapiens) (UniProt P14151)
Sequence (whole entry): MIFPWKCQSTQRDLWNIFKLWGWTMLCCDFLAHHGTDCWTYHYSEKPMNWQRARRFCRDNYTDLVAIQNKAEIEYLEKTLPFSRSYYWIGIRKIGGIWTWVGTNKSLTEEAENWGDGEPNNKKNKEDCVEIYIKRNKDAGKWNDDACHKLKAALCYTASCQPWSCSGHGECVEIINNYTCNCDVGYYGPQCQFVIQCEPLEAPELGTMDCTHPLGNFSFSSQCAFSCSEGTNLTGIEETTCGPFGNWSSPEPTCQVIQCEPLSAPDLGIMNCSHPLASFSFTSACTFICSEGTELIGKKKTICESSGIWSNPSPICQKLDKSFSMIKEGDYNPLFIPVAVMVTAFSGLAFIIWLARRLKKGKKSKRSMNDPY
Protocol: Inhibition of human L-selectin after 2 hrs at 100 uM
Please state the figure in %; there is no need to write the unit.

These recorded examples may help you get a feel for the data.
Structure Notation	inhibition [%]
O=c1cc(-c2ccccc2)oc2cc(O)cc(O)c12	4.3
O=C(O)C1=C[C@@H](O)[C@@H](O)[C@H](O)C1	12.2
O=C(O)c1cccc(O)c1O	1.1
Oc1cccc(O)c1O	13.5
O=c1cc(-c2ccccc2)oc2cc(O)c(O)c(O)c12	51.7

*Q* Any idea what its inhibition is? The compound is "O=C(O)c1ccc(O)c(O)c1"
*A* 1.3

*Q* inhibition for "O=c1c(O)cccc2cc(O)c(O)c(O)c12" ?
*A* 83.6

###

Tested Target: L-selectin (Homo sapiens, UniProt P14151)
Sequence (P14151 whole entry): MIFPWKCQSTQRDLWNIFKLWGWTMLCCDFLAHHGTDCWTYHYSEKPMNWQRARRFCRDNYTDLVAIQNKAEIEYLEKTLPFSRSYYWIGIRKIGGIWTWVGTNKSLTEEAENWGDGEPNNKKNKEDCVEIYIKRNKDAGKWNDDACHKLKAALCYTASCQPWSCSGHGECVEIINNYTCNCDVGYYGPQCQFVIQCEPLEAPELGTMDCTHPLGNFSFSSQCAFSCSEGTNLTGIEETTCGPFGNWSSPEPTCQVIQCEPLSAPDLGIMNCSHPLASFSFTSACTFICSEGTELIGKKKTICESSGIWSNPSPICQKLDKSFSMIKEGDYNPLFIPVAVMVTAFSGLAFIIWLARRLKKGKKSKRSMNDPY
Here the recorded log10 IC50 is given for each entry.
Remember, log10 of IC50, in µM.

Structure Notation	log10 IC50
O=C(O)Cc1cccc(-c2ccccc2NC(=O)CCc2cc(O)c(O)c(O)c2)c1	1.81
O=C(O)Cc1ccc(-c2ccccc2NC(=O)/C=C/c2ccc(O)c(O)c2O)s1	0.63
O=C(O)Cc1ccc(-c2ccccc2NC(=O)Cc2cc(O)c(O)c(O)c2)s1	0.49

*Q* I would be grateful if you could share the reported log10 IC50 for "O=C(O)Cc1ccc(-c2ccccc2NC(=O)c2ccccc2-c2cc(O)c(O)c(O)c2)s1" .
*A* 2.39

*Q* For the compound "O=C(O)Cc1ccc(-c2cccc(NC(=O)c3cccc(-c4ccc(O)c(O)c4O)c3)c2)s1" , what log10 IC50 is on record?
*A* 0.04

*Q* So what's the measured log10 IC50 for this one? "O=C(Nc1ccccc1-c1ccc(C(=O)O)s1)c1cccc(-c2ccc(O)c(O)c2O)c1"
*A* 0.20

*Q* Data request, read-out log10 IC50, for "Cc1cc(O)c(O)c(O)c1"
*A* 1.59

*Q* Consider the compound "O=C(O)c1cc(O)c(O)c(O)c1" and give its measured log10 IC50.
*A* 1.44

###

Tested Target: L-selectin (Homo sapiens)
Sequence (P14151 whole entry): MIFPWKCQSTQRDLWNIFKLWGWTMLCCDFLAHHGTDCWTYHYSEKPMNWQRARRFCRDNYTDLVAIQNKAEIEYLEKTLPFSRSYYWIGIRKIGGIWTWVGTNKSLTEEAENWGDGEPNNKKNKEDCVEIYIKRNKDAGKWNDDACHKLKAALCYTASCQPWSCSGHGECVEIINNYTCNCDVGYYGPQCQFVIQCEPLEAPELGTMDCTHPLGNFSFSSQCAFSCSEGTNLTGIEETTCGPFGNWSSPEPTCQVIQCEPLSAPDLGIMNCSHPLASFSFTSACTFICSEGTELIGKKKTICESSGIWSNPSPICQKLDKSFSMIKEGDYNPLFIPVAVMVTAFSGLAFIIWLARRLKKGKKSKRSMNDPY
Threshold 40 µM. IC50 below it: label 1. IC50 at it or above: label 0.

Compound	Group
O=C(O)c1ccc(O)c(O)c1O	label 1

*Q* hey, is IC50 for CC(=O)N[C@H]1[C@H]([C@H](O)[C@H](O)CO)O[C@@](O[C@H]2[C@@H](O)[C@@H](CO)O[C@@H](O[C@@H]([C@H](O[C@@H]3O[C@@H](C)[C@@H](O)[C@@H](O)[C@@H]3O)[C@H](C=O)NC(C)=O)[C@H](O)CO)[C@@H]2O)(C(=O)O)C[C@@H]1O [SIALYL LEWIS X] lower than 40 µM or not?
*A* label 0

*Q* Is the reported IC50 for "O=C(O)Cc1ccc(-c2ccccc2NC(=O)c2cccc(-c3cc(O)c(O)c(O)c3)c2)s1" strictly below 40 µM?
*A* label 1

*Q* Just wondering, is IC50 of "O=C(O)Cc1ccc(-c2ccc(NC(=O)c3cccc(-c4ccc(O)c(O)c4O)c3)cc2)s1" below 40 µM?
*A* label 1

*Q* Quick check: IC50 of "Cc1ccc(C(=O)O)cc1NC(=O)Cc1cc(O)c(O)c(O)c1" under 40 µM?
*A* label 0

*Q* Input O=C(O)Cc1cccc(-c2cc(CCCCCCc3ccc(O[C@H]4O[C@H](CO)[C@@H](O)[C@H](O)[C@@H]4O)c(-c4cccc(CC(=O)O)c4)c3)ccc2O[C@H]2O[C@H](CO)[C@@H](O)[C@H](O)[C@@H]2O)c1 [BIMOSIAMOSE] ; condition: IC50 strictly below 40 µM. Does it hold?
*A* label 0

*Q* # check: IC50 < 40 µM for "O=C(O)Cc1cccc(-c2ccccc2OC(=O)c2cc(O)c(O)c(O)c2)c1"
*A* label 1
